biological target: BCRP (hBCRP) (Homo sapiens); construct: expressed in transfected cells; host or cells: MDCKII (canine kidney) cells, canine P-gp knockout, transfected with BCRP; assay: Efflux ratio in BCRP transfected MDCKII canine P-gp knockout cells; assay type: in vitro ADME; settings: Papp(B−A)/Papp(A−B), read-out: Efflux ratio MDCKII-hBCRP knock-in,canine pg-P KO
Sequence (Q9UNQ0 whole entry): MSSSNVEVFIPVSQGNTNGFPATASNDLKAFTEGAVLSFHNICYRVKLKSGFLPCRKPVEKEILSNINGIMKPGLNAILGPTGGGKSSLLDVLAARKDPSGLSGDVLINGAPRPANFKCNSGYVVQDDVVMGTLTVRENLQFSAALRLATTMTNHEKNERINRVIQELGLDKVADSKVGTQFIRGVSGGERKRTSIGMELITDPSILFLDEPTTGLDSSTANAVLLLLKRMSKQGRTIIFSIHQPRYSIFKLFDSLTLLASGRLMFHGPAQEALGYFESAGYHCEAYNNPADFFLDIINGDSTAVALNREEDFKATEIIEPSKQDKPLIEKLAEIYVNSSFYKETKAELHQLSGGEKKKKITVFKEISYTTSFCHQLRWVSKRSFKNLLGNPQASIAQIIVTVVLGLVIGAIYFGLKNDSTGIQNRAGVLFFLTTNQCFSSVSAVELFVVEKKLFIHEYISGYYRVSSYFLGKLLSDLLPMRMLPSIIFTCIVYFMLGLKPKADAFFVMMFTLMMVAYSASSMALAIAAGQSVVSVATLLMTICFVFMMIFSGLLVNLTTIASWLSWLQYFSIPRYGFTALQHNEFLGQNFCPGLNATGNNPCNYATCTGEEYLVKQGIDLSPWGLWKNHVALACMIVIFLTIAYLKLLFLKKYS
Where a name gives a salt, the structure may show the parent alone.

{"Molecule": "CSc1ccc(Nc2c3c(cc(=O)n2C)CCN(OCCO)C3=O)c(Cl)c1", "efflux ratio at 2 h, 1 μM": 3}
{"Molecule": "Cc1c2c(c(Nc3ccc(I)cc3F)n(C)c1=O)C(=O)NCC2", "efflux ratio at 2 h, 1 μM": 1}
{"Molecule": "Cn1c(Nc2ccc(C3CC3)cc2F)c2c(cc1=O)CCNC2=O", "efflux ratio at 2 h, 1 μM": 1.2}
{"Molecule": "Cn1c(Nc2ccc(Br)cc2F)c2c(cc1=O)CCN(OCCO)C2=O", "efflux ratio at 2 h, 1 μM": 9.6}
{"Molecule": "CSc1ccc(Nc2c3c(c(C)c(=O)n2C)CCNC3=O)c(F)c1", "efflux ratio at 2 h, 1 μM": 1.4}
{"Molecule": "CCc1ccc(Nc2c3c(c(C)c(=O)n2C)CCN(OCCO)C3=O)c(F)c1", "efflux ratio at 2 h, 1 μM": 2.7}
{"Molecule": "Cn1c(Nc2ccc(C3CC3)cc2Cl)c2c(cc1=O)CCN(OCCO)C2=O", "efflux ratio at 2 h, 1 μM": 1.5}
{"Molecule": "Cn1c(Nc2ccc(I)cc2F)c2c(cc1=O)CCNC2=O [Example 49, trifluoroacetate]", "efflux ratio at 2 h, 1 μM": 1}
{"Molecule": "CCON1CCc2cc(=O)n(C)c(Nc3ccc(Br)cc3F)c2C1=O", "efflux ratio at 2 h, 1 μM": 0.9}
